Consider the following compounds; for each one, report its TGI.
- Test system: HT29 colon
- test method notes: NCI tumour cell line growth inhibition, 48 h
Where a SMILES comes first, the peptide text is derived from it.

Enquiry: State the recorded TGI for this entry: C/C(=C\COP(=O)(O)OP(=O)(O)O)CC/C=C(\C)CNc1ccccc1
Return: > 50 µM

Enquiry: State the recorded TGI for this entry: CCC(C)C(NC(=O)C1CCCN1)C(=O)NC(C(=O)NCC(=O)NC(CC(N)=O)C(=O)NC(CC(C)C)C(=O)NC(CC(C)C)C(=O)NC(CCCCN)C(N)=O)C(C)C (centres undefined) (H-PIVGNLLK-NH2; configuration not given here)
Return: > 75 µM

Enquiry: State the recorded TGI for this entry: CC(=O)Nc1nc(C)c(S(=O)(=O)NC(=O)N2c3ccccc3CCc3ccccc32)s1
Return: > 100 µM

Enquiry: State the recorded TGI for this entry: COc1ccc(C=C2C(=O)OC(C)(C)OC2=O)cc1OC
Return: > 100 µM

Enquiry: State the recorded TGI for this entry: O=C1CCc2cc3c(cc21)C(C(=O)O)CC3 (centres undefined)
Return: > 100 µM

Enquiry: State the recorded TGI for this entry: O=Cc1c(-c2cc(O)ccc2O)nc2sccn12
Return: > 100 µM

Enquiry: State the recorded TGI for this entry: Nc1cc2ncnc(Nc3cccc(Br)c3)c2cn1
Return: > 100 µM

Enquiry: State the recorded TGI for this entry: CCCC[C@H]1C(=O)O[C@H](C)[C@H](NC(=O)c2cccc(NC=O)c2O)C(=O)O[C@@H](C)[C@@H]1OC(=O)CC(C)C
Return: 27.4 µM

Enquiry: State the recorded TGI for this entry: CC(C)Oc1cc2c(cc1O)CC[C@@H]1[C@@H]2CC[C@]2(C)[C@@H](O)CC[C@@H]12
Return: 23 µM

Enquiry: State the recorded TGI for this entry: COc1ccc(-c2cc(-c3ccc(OC)c(OC)c3)nc(SCCCC(=O)NO)n2)cc1
Return: > 100 µM

Enquiry: State the recorded TGI for this entry: Cc1cccc(=O)c([O-])c1.Cc1cccc(=O)c([O-])c1.Cc1cccc(=O)c([O-])c1.Cc1cccc(=O)c([O-])c1.[Th+4]
Return: > 49.4 µM

Enquiry: State the recorded TGI for this entry: O=C1C(Cl)C(c2cccc(O)c2)N1n1cnc2ccccc2c1=O (centres undefined)
Return: > 100 µM

Enquiry: State the recorded TGI for this entry: CC(C)CCCC(C)[C@H]1CC[C@H]2NCCCC[C@]12C (some centres undefined)
Return: 5.54 µM

Enquiry: State the recorded TGI for this entry: OCC1c2ccccc2-n2nc(-c3ccccc3)c(O)c21 (centres undefined)
Return: 76.4 µM

Enquiry: State the recorded TGI for this entry: Cn1c(O)c(/C=N/c2ncccn2)c(=O)[nH]c1=O
Return: > 100 µM

Enquiry: State the recorded TGI for this entry: CCCOC1OC(CS(=O)(=O)O)C(OC(C)=O)C(OC(C)=O)C1OC(C)=O (centres undefined)
Return: > 100 µM

Enquiry: State the recorded TGI for this entry: O=C1C(Cl)=C(Cl)C(=O)N1C1C2CC3CC(C2)CC1C3 (centres undefined)
Return: > 100 µM

Enquiry: State the recorded TGI for this entry: C[C@@H]1C=C(CCCCCCCCCCC[C@H](O)[C@@H]2CCC(=O)O2)C(=O)O1
Return: > 100 µM

Enquiry: State the recorded TGI for this entry: CCOc1ccccc1N=NC1C(=O)N(C(=O)CC(=O)Nc2ccccc2OC)N=C1C (centres undefined)
Return: > 100 µM

Enquiry: State the recorded TGI for this entry: Cc1ccc(NC(=O)CC2C(=O)Nc3ccccc3S2=O)cc1C (centres undefined)
Return: > 100 µM

Enquiry: State the recorded TGI for this entry: CCOC(=O)COC1=Nc2cc(OC)c(OC)c3nc(Cl)cc(c23)C1=O
Return: 6.37 µM

Enquiry: State the recorded TGI for this entry: COC(=O)C1CC(C(=O)OC)c2nc3cc(C)ccc3nc21 (centres undefined)
Return: > 100 µM

Enquiry: State the recorded TGI for this entry: C[C@]12CCC3[C@@H](C[C@@H]4SC(Nc5ccccc5)=N[C@@]45CC(=O)CC[C@]35C)[C@@H]1CCC2=O (some centres undefined)
Return: 17.6 µM

Enquiry: State the recorded TGI for this entry: CCOc1ccc(N=Cc2cccc3cccnc23)cc1
Return: > 100 µM

Enquiry: State the recorded TGI for this entry: O=C(O)c1cc2ccccc2c(O)c1O
Return: 49.3 µM

Enquiry: State the recorded TGI for this entry: O=C1CCC(Cc2ccc(Cl)cc2Cl)C(=O)N1 (centres undefined)
Return: > 100 µM

Enquiry: State the recorded TGI for this entry: CC(=O)NC1C(OCc2ccccc2)OC(CO)C(O)C1OCC(=O)N[C@@H](C)C(=O)N[C@H](CCC(=O)NCCCCNc1c2ccccc2nc2cccc([N+](=O)[O-])c12)C(N)=O (some centres undefined)
Return: 7.86 µM

Enquiry: State the recorded TGI for this entry: CCCC(CC)c1cc(O)c(O)cc1C(CC)CCC (centres undefined)
Return: > 10 µM

Enquiry: State the recorded TGI for this entry: COc1ccc(OC)c(-c2cn3c(n2)sc2ccccc23)c1
Return: > 100 µM

Enquiry: State the recorded TGI for this entry: CC(=O)OC1C(=O)C(O)C(C)OC1O[C@@H]1C[C@@]2(C)[C@@H]3CC=C4[C@@H](C[C@H](O)C(=O)C4(C)C)[C@]3(C)C(=O)C[C@]2(C)[C@H]1[C@@](C)(O)C(=O)/C=C/C(C)(C)O (some centres undefined)
Return: > 10 µM

Enquiry: State the recorded TGI for this entry: CCOC(=O)c1c(SCCN2CCCCC2)n(-c2ccccc2)c(=S)n(-c2ccccc2)c1=O
Return: 32.1 µM

Enquiry: State the recorded TGI for this entry: COC(=O)C(CCS(=O)(=O)CC(=O)C(=O)Nc1cccc(C(C)=O)c1)C(=O)OC
Return: > 100 µM

Enquiry: State the recorded TGI for this entry: CCC1(O)CC(O)c2c(O)c3c(c(O)c2C1C(=O)OC)C(=O)c1cccc(O)c1C3=O (centres undefined)
Return: 14.1 µM

Enquiry: State the recorded TGI for this entry: CCCCCCCCCCC/C(=N/O)c1ccc(O)c2ncccc12
Return: 17.2 µM

Enquiry: State the recorded TGI for this entry: COCCn1cc(-c2csc(-c3c[nH]c4ccccc34)n2)c2cccnc21
Return: > 100 µM

Enquiry: State the recorded TGI for this entry: c1ccc2c(c1)ccc1nc(-c3ccc4c(c3)OCO4)c3c(c12)CCC3
Return: > 100 µM

Enquiry: State the recorded TGI for this entry: O=C1/C(=C(/Br)I)c2ccccc2-c2ccccc21
Return: 18.3 µM

Enquiry: State the recorded TGI for this entry: COc1cccc(OC/C(N=Cc2ccncc2)=N/NC(=O)c2ccncc2)c1
Return: > 100 µM

Enquiry: State the recorded TGI for this entry: N#CC(NNC(=O)c1ccccc1O)c1ccc(O)cc1 (centres undefined)
Return: > 100 µM

Sourced from PubChem BioAssay (NCI)
